System: ncRNAs (SEQ ID NO 28-89)
Assay: ncRNA arrays of melanocytes, keratinocytes, normal skin, melanoma cell lines and patient samples
Parameters: species or system human
Details: melanoma patient 4 sample compared to normal skin
substances and their reported ncRNA array expression, patient 4

Substance	ncRNA array expression, patient 4
SEQ ID NO 61 (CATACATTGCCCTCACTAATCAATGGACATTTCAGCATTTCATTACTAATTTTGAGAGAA; listed as DNA, chemistry not given here; listed as Homo sapiens)	1.12
SEQ ID NO 81 (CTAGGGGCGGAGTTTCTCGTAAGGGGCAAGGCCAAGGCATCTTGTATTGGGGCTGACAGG; listed as DNA, chemistry not given here; listed as Homo sapiens)	−2.74
SEQ ID NO 35 (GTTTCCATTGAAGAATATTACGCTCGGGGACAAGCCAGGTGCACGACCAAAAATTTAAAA; DNA, backbone and methylation of C not given here; listed as Homo sapiens)	3.278

Reference source for all entries: patent US20110143948A1
